# credit: PubChem BioAssay (EPA / NIEHS)

Experiment: ATG_DR4_LXR_CIS: Attagene CIS-FACTORIAL HepG2 Assay for human Liver X Receptor (LXR), DR4 submotif (AID 2282929)
Conditions: HepG2 Attagene DR4 cis-reporter, mRNA transcription; actives raise or lower the signal
Activity calls are given as the source filed them. How the source made its calls: active means hit-call score of the fitted dose curve at least 0.9, where 1 is the maximum; inactive means score below 0.9.
Answer with one of the outcomes given here: active, inactive

CCCC(=O)OCCC(C)CCC=C(C)C (stereo not drawn) = inactive

Inquiry: Fill in: this test's call for CCCCCCOC(=O)CC is ___
Reply text: inactive

====

Read-out: Interleukin 2 (IL2), IL2 (gene 3558)
Assay: BSK_BT_xIL2: BioMAP Diversity Plus: BT Assay for Interleukin 2 (IL2) Biomarker Activity (AID 2284245)
Settings: primary human B cells with PBMC
Activity calls are given as the source filed them. Rule for the calls: active = hit-call score of the fitted dose curve at least 0.9, where 1 is the maximum; inactive = score below 0.9.
Answer with one of the outcomes given here: yes = active, no = inactive

Known results for molecules:
CC1CCC(C(C)CS)CC1S (centres undefined) = no
CCCCC/C=C/C=C/C=O = yes
C=C[Si](OCC)(OCC)OCC = no
Nc1cc([N+](=O)[O-])ccc1Cl = no
Cc1ccc(O)c(C(C)(C)C)c1 = no
CC(C)(COC(=O)c1ccccc1)COC(=O)c1ccccc1 = no
CC(=O)O[C@]1(C(C)=O)CC[C@H]2[C@@H]3C[C@H](C)C4=CC(=O)CC[C@]4(C)[C@H]3CC[C@@]21C = no
O=C(O)C[C@H](O)C[C@H](O)/C=C/c1c(C2CC2)nc2ccccc2c1-c1ccc(F)cc1 = yes

Inquiry: Fill in: this test's call for O=C(O)c1cn(C2CC2)c2cc(N3CCNCC3)c(F)cc2c1=O is ___
Reply text: no

Inquiry: Fill in: this test's call for O=P(c1ccccc1)(c1ccccc1)c1ccccc1 is ___
Reply text: no

Inquiry: Fill in: this test's call for CNC[C@H](O)c1cccc(O)c1 is ___
Reply text: no

Inquiry: Fill in: this test's call for O=C1CCCCCCCCCCCCCCO1 is ___
Reply text: yes

Inquiry: Fill in: this test's call for CC(C)c1ccc(C(C)C)cc1 is ___
Reply text: no

Inquiry: Fill in: this test's call for CCCCCCCCCCCCCCCCCC(=O)OCC(CC)CCCC (centres undefined) is ___
Reply text: no
